Molecular target: GAL4–human PPARα-LBD chimera (Homo sapiens)
Sequence (Q07869 239-466 limits assumed): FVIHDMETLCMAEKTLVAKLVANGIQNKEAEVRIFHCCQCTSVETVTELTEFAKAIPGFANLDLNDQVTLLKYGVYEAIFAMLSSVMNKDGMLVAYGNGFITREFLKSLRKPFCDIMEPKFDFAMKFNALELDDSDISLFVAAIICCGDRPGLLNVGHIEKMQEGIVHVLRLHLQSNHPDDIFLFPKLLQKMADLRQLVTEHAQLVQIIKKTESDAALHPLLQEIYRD
Assay: GAL4–hPPARα-LBD dual luciferase transactivation assay in COS-7 cells
measurementType: pEC50
Give bare numbers, as −log10 of the molar value.

Lab note: GAL4–human PPARα-LBD chimera (Homo sapiens) assay, enter pEC50 for "CC(C)(Oc1ccc(C(=O)c2ccc(Cl)cc2)cc1)C(=O)O" here
5.02

---

biological target: human PPARγ-LBD (Homo sapiens, UniProt P37231); assay: TR-FRET PGC1α coactivator peptide recruitment assay, PPARγ-LBD
Kindly state pEC50 for each of the entries shown.
Give bare numbers, as −log10 of the molar value.

# compound, assayedSystem, measurementType, number
records = [
    ("CC[C@@H](Oc1cccc(CN(CCCOc2ccc(OC)cc2)c2nc3ccccc3o2)c1)C(=O)O [pemafibrate]", "human PPARγ-LBD (Homo sapiens, UniProt P37231)", "pEC50", 5.01),
]

Next:
Lab note: human PPARγ-LBD (Homo sapiens, UniProt P37231) assay, enter pEC50 for CC(C)(Oc1ccc(CCNC(=O)c2ccc(Cl)cc2)cc1)C(=O)O [bezafibrate] here
4.31

---

Biological target: UniProtKB P37231
Sequence (P37231 203-477 isoform P37231-2): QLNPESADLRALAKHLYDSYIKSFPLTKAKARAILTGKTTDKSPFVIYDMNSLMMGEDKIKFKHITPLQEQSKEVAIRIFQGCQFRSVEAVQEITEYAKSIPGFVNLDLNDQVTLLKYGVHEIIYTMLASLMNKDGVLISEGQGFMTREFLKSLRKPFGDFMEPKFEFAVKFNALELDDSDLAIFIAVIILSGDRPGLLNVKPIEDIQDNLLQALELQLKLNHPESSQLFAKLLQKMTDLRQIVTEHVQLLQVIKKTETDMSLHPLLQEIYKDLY
Assay: TR-FRET SRC1 coactivator peptide recruitment assay, PPARγ-LBD
measurementType: pEC50
Numbers only, as −log10 of the molar value.

Give the reported value of pEC50 for this record: CC(C)(Oc1ccc(CCNC(=O)c2ccc(Cl)cc2)cc1)C(=O)O [bezafibrate]
4.12

Values were extracted from paper PMC9102038.
